Source of measurements: patent US5776899A

tested on: human immunodeficiency virus (HIV); assay: Antiviral activity against HIV in HIV-infected MT-4 cells (MTT method); format: cell-based; conditions: Table 5
Positions of bridges follow the written chain, without caps; N, C: chain ends. Non-standard residues stand in square brackets, D forms with d. Residues, ends and D or L forms follow the SMILES beside them.
Measure name: SI (CC50/EC50)
API doc: respond with a numeric literal and nothing else, no unit.

>>> reported_value("N=C(N)NCCC[C@H](NC(=O)[C@@H]1CSSC[C@H](NC(=O)[C@H](Cc2c[nH]c3ccccc23)NC(=O)[C@H](CCCNC(=N)N)NC(=O)[C@@H](N)CCCNC(=N)N)C(=O)N[C@@H](Cc2ccc(O)cc2)C(=O)N[C@@H](CCCNC(=N)N)C(=O)N[C@@H](CCCCN)C(=O)N[C@H](CCCCN)C(=O)N2CCC[C@H]2C(=O)N[C@@H](Cc2ccc(O)cc2)C(=O)N[C@@H](CCCNC(=N)N)C(=O)N[C@@H](CCCCN)C(=O)N1)C(N)=O [Polypeptide (1)] (H-RRWCYRK[dK]PYRKCR-NH2; disulfide 4-13)")
3352

Here's the next entry for you.
Record summary for N=C(N)NCCC[C@H](NC(=O)[C@@H]1CSSC[C@H](NC(=O)[C@H](Cc2c[nH]c3ccccc23)NC(=O)[C@H](CCCNC(=N)N)NC(=O)[C@@H](N)CCCNC(=N)N)C(=O)N[C@@H](Cc2ccc(O)cc2)C(=O)N[C@@H](CCCNC(=N)N)C(=O)N[C@@H](CCCCN)C(=O)N2CCC[C@H]2C(=O)N[C@H](CCCCN)C(=O)N[C@@H](Cc2ccc(O)cc2)C(=O)N[C@@H](CCCNC(=N)N)C(=O)N[C@@H](CCCCN)C(=O)N1)C(N)=O [Polypeptide (5)] (H-RRWCYRKP[dK]YRKCR-NH2; disulfide 4-13) : reported SI (CC50/EC50) = 1321

----------
tested on: MT-4 cells; test: Cytotoxicity on virus-non-infected MT-4 cells (MTT method); format: cell-based; conditions: Table 5; method of Example 2, virus-non-infected MT-4 cells
Positions of bridges follow the written chain, without caps; N, C: chain ends. Non-standard residues stand in square brackets, D forms with d. Residues, ends and D or L forms follow the SMILES beside them. GABA = NCCCC(=O)O
Measure name: CC50 (µg/mL)
# value in µg/mL; strip the unit string

Bench note, MT-4 cells: entry N=C(N)NCCC[C@H](NC(=O)[C@@H]1CSSC[C@H](NC(=O)[C@H](Cc2c[nH]c3ccccc23)NC(=O)[C@H](CCCNC(=N)N)NC(=O)[C@@H](N)CCCNC(=N)N)C(=O)N[C@@H](Cc2ccc(O)cc2)C(=O)N[C@@H](CCCNC(=N)N)C(=O)N[C@@H](CCCCN)C(=O)N[C@H](CCCCNC(=O)CCCN)C(=O)N2CCC[C@H]2C(=O)N[C@@H](Cc2ccc(O)cc2)C(=O)N[C@@H](CCCNC(=N)N)C(=O)N[C@@H](CCCCN)C(=O)N1)C(N)=O (H-RRWCYRK[dK](GABA)PYRKCR-NH2; disulfide 4-13) , its CC50 = 138.07

----------
Reported SI (CC50/EC50) values are given for each entry in this list.
tested on: human immunodeficiency virus (HIV); experiment: Antiviral activity against HIV in HIV-infected MT-4 cells (MTT method); assay type: cell-based; conditions: Table 5
Positions of bridges follow the written chain, without caps; N, C: chain ends. Non-standard residues stand in square brackets, D forms with d. Residues, ends and D or L forms follow the SMILES beside them. *: point of attachment. Myristoyl = CCCCCCCCCCCCCC(=O)*; GABA = NCCCC(=O)O
Number, no unit, nothing else.

Worked set:
>>> reported_value("N=C(N)NCCC[C@H](NC(=O)[C@@H]1CSSC[C@H](NC(=O)[C@H](Cc2c[nH]c3ccccc23)NC(=O)[C@H](CCCNC(=N)N)NC(=O)[C@@H](N)CCCNC(=N)N)C(=O)N[C@@H](Cc2ccc(O)cc2)C(=O)N[C@@H](CCCNC(=N)N)C(=O)N[C@@H](CCCCN)C(=O)N[C@H](CCCCNC(=O)CCCN)C(=O)N2CCC[C@H]2C(=O)N[C@@H](Cc2ccc(O)cc2)C(=O)N[C@@H](CCCNC(=N)N)C(=O)N[C@@H](CCCCN)C(=O)N1)C(N)=O (H-RRWCYRK[dK](GABA)PYRKCR-NH2; disulfide 4-13)")
11095
>>> reported_value("CCCCCCCCCCCCCC(=O)N[C@@H](CCCNC(=N)N)C(=O)N[C@@H](CCCNC(=N)N)C(=O)N[C@@H](Cc1c[nH]c2ccccc12)C(=O)N[C@H]1CSSC[C@@H](C(=O)N[C@@H](CCCNC(=N)N)C(N)=O)NC(=O)[C@H](CCCCN)NC(=O)[C@H](CCCNC(=N)N)NC(=O)[C@H](Cc2ccc(O)cc2)NC(=O)[C@@H]2CCCN2C(=O)[C@@H](CCCCN)NC(=O)[C@H](CCCCN)NC(=O)[C@H](CCCNC(=N)N)NC(=O)[C@H](Cc2ccc(O)cc2)NC1=O [Polypeptide (17)] (Myristoyl-RRWCYRK[dK]PYRKCR-NH2; disulfide 4-13)")
1838

Record CC(=O)N[C@@H](CCCNC(=N)N)C(=O)N[C@@H](CCCNC(=N)N)C(=O)N[C@@H](Cc1c[nH]c2ccccc12)C(=O)N[C@H]1CSSC[C@@H](C(=O)N[C@@H](CCCNC(=N)N)C(N)=O)NC(=O)[C@H](CCCCN)NC(=O)[C@H](CCCNC(=N)N)NC(=O)[C@H](Cc2ccc(O)cc2)NC(=O)[C@@H]2CCCN2C(=O)[C@@H](CCCCN)NC(=O)[C@H](CCCCN)NC(=O)[C@H](CCCNC(=N)N)NC(=O)[C@H](Cc2ccc(O)cc2)NC1=O [Polypeptide (14)] (Ac-RRWCYRK[dK]PYRKCR-NH2; disulfide 4-13) has human immunodeficiency virus (HIV) SI (CC50/EC50) equal to 3256
